Values were extracted from PubChem BioAssay (NCATS).

# Tested on: CRL-7250
# protocol_description: Cytotoxic Profiling of Annotated Libraries Using Quantitative High-Throughput Screening (AID 1296008); also: % is scaled to controls: 0 for no effect and ±100 for the full control effect; nearly all actives have a fitted effect of over 60% in size
# test_settings: Five cell lines viability, CellTiter-Glo ATP luminescence, 48-72 h; hits give low values
Inconclusive results are not listed.
measurement_label: max response (%)
Respond with the bare value in %.

{"columns": ["molecule", "endpoint_result"],
 "data": [
  ["Cc1c(C(=O)Nc2ccc(N3C[C@@H](C)O[C@@H](C)C3)nc2)cccc1-c1ccc(OC(F)(F)F)cc1", -6.66]
]}

## Task API: value(readout=max response, system=CRL-7250) for record `COc1cc(C=CC(=O)O)ccc1O`
## Result 1.23

## Task What about `CC[C@H](C=C[C@@H](C)[C@H]1CC[C@H]2[C@@H]3CC=C4C[C@@H](O)CC[C@]4(C)[C@@H]3CC[C@]12C)C(C)C` ?
## Result -16.3
